Every entry's value here was drawn from paper PMC3580954.

Recorded IC50 for the following binders
- ASSAY TARGET: T1, PrRP receptor (GPR10) (Homo sapiens, UniProt P49683)
- T1 chain: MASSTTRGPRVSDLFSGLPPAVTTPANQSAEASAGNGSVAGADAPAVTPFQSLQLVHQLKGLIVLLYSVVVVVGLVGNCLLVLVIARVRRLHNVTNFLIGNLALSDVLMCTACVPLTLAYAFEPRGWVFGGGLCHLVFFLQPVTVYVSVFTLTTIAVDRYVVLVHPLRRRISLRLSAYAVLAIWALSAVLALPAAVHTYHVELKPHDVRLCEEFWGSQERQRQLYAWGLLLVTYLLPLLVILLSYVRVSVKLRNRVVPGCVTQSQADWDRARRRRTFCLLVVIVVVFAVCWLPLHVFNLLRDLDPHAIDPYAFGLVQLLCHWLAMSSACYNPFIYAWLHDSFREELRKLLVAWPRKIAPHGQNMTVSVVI
- ASSAY DETAILS: radioligand displacement on transfected COS-7 cells
No end group written: not given here.
Quick reminder: number only, in nM, skip the unit.

Sample answers from the record:
| BINDER | IC50, nM |
| --- | --- |
| INPAWYASRGIRPVGRF-NH2 [PrRP4-20] | 1.2 |
| IRPVGRF-NH2 [PrRP14-20] | 430 |
| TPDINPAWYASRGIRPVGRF-NH2 [PrRP20] | 4.1 |

Consider the record given below.
Challenge: Given WYASRGIRPVGRF-NH2 [PrRP8-20] , respond with its IC50.
Response given: 7
